- MEASURED TARGET: furin, P09958;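 also: purified furin at 1:10 enzyme:substrate in 50 mM HEPES pH 7.5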
- Sequence (P09958 whole entry): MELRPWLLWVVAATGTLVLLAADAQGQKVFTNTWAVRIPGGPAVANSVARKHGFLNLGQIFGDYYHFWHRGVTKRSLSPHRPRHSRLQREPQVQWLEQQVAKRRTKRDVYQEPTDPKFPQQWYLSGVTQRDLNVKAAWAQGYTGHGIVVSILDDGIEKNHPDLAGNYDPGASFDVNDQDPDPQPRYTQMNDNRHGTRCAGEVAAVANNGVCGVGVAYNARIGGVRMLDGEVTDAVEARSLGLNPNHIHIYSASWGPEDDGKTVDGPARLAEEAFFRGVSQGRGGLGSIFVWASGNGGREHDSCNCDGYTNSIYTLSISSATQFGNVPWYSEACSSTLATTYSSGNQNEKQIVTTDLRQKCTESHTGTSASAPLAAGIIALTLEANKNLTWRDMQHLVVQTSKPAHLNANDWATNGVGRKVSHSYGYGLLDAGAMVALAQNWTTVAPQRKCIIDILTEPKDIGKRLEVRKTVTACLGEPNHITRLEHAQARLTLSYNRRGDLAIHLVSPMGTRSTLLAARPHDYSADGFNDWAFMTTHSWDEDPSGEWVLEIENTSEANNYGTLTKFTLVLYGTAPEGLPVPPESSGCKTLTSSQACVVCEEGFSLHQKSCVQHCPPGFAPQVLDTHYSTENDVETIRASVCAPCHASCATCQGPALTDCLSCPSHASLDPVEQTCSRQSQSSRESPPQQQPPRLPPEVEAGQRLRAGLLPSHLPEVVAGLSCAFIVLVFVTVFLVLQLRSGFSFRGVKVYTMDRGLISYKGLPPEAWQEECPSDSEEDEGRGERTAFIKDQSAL
- PROCEDURE SUMMARY: furin cleavage Z-score vs untreated control; higher = more cleavage, active = 3.5 or more, inactive = 1 or less, 8 variable residues between constant flanks
- RUN PARAMETERS: 15 min
This is one part of the list. The true hit rate is not given.
Possible outcomes: active, inactive

> print(dat)
                   sequence.text  class.name
 1  CARPRRSAGKAGNASASA [FS-2059]      active
 2  CAREDRFFCPAGNASASA [FS-2001]    inactive
 3  CARRKRSRKPAGNASASA [FS-1835]      active
 4   CALRRRCQRDAGNASASA [FS-459]      active
 5    CALRRVLRRDAGNASASA [FS-56]      active
 6  CATNNRKIRVAGNASASA [FS-1495]      active
 7  CARRKRYRNFAGNASASA [FS-1836]    inactive
 8  CARPRRFFPGAGNASASA [FS-1964]    inactive
 9  CAYSALHKRQAGNASASA [FS-1505]    inactive
10   CAFPNRDQRDAGNASASA [FS-652]    inactive
11   CALPFRSKRQAGNASASA [FS-684]      active
12   CADLVVICESAGNASASA [HC1530]    inactive
13  CARPRRSAHRAGNASASA [FS-1863]      active
14  CARRKKARGPAGNASASA [FS-2776]    inactive
15   CAQRRRPTRPAGNASASA [FS-371]    inactive
16   CALRPRQRRAAGNASASA [FS-360]      active
